# Test system: ATP;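 also: ATP exposure 15 min at 22 °C before imaging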
# test description: switch fluorescence ratio, 500 uM ATP over buffer (Cy3 cluster intensity, sum of 5 cycles each) (fold (ratio)); higher = stronger signal-on switching upon ATP binding; sequences stand for … in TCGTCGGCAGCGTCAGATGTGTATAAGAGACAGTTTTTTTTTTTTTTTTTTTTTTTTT…TC
# condition info: aptamer strand: ATP DNA aptamer (quencher-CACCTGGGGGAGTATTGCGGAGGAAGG + anchor), 100 nM annealed; ATP concentration: 500 uM
outcome measure: switch fluorescence ratio

Example results:
>  <chain sequence>
AGATAATTAG

>  <test result>
1

$$$$
>  <chain sequence>
TGGGGGTCGA

>  <test result>
1.01

$$$$
>  <chain sequence>
CGGTTGCTAG

>  <test result>
0.997

$$$$
>  <chain sequence>
GCGGGTCATG

>  <test result>
0.981

$$$$
>  <chain sequence>
TTGGTTTAAT

>  <test result>
1.01

$$$$
>  <chain sequence>
ACCATCGTAG

>  <test result>
1.02

$$$$
>  <chain sequence>
CTTGTTGTAT

>  <test result>
1.01

$$$$
>  <chain sequence>
GTTCGGTGGA

>  <test result>
1

$$$$
>  <chain sequence>
GGCTTCTGGG

>  <test result>
0.989

$$$$
>  <chain sequence>
TATAGCAGTT

>  <test result>
1.01

$$$$

Next, consider the following sequence.
switch fluorescence ratio recorded for this sequence, `TGAAGTTTGC` , is 0.999

###

# Test system: ATP;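 also: ATP exposure 15 min at 22 °C before imaging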
# test description: switch fluorescence ratio, 500 uM ATP over buffer (Cy3 cluster intensity, sum of 5 cycles each) (fold (ratio)); higher = stronger signal-on switching upon ATP binding; sequences stand for … in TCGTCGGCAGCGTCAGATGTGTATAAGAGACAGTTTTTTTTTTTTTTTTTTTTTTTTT…TC
# condition info: aptamer strand: ATP DNA aptamer (quencher-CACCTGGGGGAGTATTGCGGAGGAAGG + anchor), 100 nM annealed; ATP concentration: 500 uM
switch fluorescence ratio listing for selected sequences.
Reply: number alone, nothing else.

Worked cases, answers included:
>  <chain sequence>
AATTTAGTAG

>  <system name>
ATP;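 also: ATP exposure 15 min at 22 °C before imaging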

>  <test result>
1

$$$$
>  <chain sequence>
TTCAAGGGGT

>  <system name>
ATP;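 also: ATP exposure 15 min at 22 °C before imaging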

>  <test result>
0.994

$$$$
>  <chain sequence>
TGGGAGAAGT

>  <system name>
ATP;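 also: ATP exposure 15 min at 22 °C before imaging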

>  <test result>
0.983

$$$$
>  <chain sequence>
GTGGGGCATT

>  <system name>
ATP;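 also: ATP exposure 15 min at 22 °C before imaging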

>  <test result>
0.991

$$$$
>  <chain sequence>
TTTGTTACAG

>  <system name>
ATP;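 also: ATP exposure 15 min at 22 °C before imaging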

>  <test result>
1

$$$$

// `GAGTTTAGGT` : switch fluorescence ratio value = 1.02

###

# Test system: ATP;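 also: ATP exposure 15 min at 22 °C before imaging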
# test description: switch fluorescence ratio, 500 uM ATP over buffer (Cy3 cluster intensity, sum of 5 cycles each) (fold (ratio)); higher = stronger signal-on switching upon ATP binding; sequences stand for … in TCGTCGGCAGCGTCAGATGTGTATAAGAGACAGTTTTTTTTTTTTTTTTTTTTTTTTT…TC
# condition info: aptamer strand: ATP DNA aptamer (quencher-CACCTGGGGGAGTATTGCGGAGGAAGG + anchor), 100 nM annealed; ATP concentration: 500 uM
outcome measure: switch fluorescence ratio
Format: numeric value only, no unit, no commentary.

As a guide, the following entries are already answered.
>  <chain sequence>
TTGACTTGTG

>  <switch fluorescence ratio>
0.971

$$$$
>  <chain sequence>
CGTGTGTACC

>  <switch fluorescence ratio>
1.01

$$$$
>  <chain sequence>
ATGTCGGTCG

>  <switch fluorescence ratio>
1.02

$$$$
>  <chain sequence>
CGGGGCGGCA

>  <switch fluorescence ratio>
0.998

$$$$
>  <chain sequence>
AAAGTTTTGT

>  <switch fluorescence ratio>
0.983

$$$$

# switch fluorescence ratio of `GCCGTTAGCG` = 1.02

sequence `TCTGATGAAT` , switch fluorescence ratio observed: 1.02

`CATTGTGGTA` yielded switch fluorescence ratio of 1.01

###

# Tested on: ATP;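 also: ATP exposure 15 min at 22 °C before imaging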
# test description: switch fluorescence ratio, 500 uM ATP over buffer (Cy3 cluster intensity, sum of 5 cycles each) (fold (ratio)); higher = stronger signal-on switching upon ATP binding; sequences stand for … in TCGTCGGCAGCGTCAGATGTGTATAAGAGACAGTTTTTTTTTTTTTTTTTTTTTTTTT…TC
# condition info: aptamer strand: ATP DNA aptamer (quencher-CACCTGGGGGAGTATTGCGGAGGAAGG + anchor), 100 nM annealed; ATP concentration: 500 uM
outcome measure: switch fluorescence ratio
// no unit string in output, number only

Study these solved cases before continuing.
>  <chain sequence>
ACTATTTGCA

>  <switch fluorescence ratio>
1.02

$$$$
>  <chain sequence>
TAGGGGGACG

>  <switch fluorescence ratio>
1.04

$$$$
>  <chain sequence>
ATTATATCCC

>  <switch fluorescence ratio>
1.06

$$$$
>  <chain sequence>
GTGGACTTGC

>  <switch fluorescence ratio>
0.973

$$$$

switch fluorescence ratio reported for this sequence `CAGGTCTTGA` : 0.989

Entry `TGGCTCGGCT` , switch fluorescence ratio reported as 1.03

`AAGGGTGTTT` yielded switch fluorescence ratio of 1.01

Lookup result for `ATGTGCAGCG` ; measured switch fluorescence ratio: 1.03

Just so you know, measured switch fluorescence ratio for `TTTGTGGTCC` came out at 0.98

Kindly note the recorded switch fluorescence ratio for `GTATGAAGAG` , which is 0.995

Input `GACGGGCGGA` . Output switch fluorescence ratio: 1.02

Measured switch fluorescence ratio of `AGAATGTCGA` : 0.968

Lab book: switch fluorescence ratio of `TTGACCGCTG` noted as 1.16

###

In this section, each of the sequences is paired with its reported switch fluorescence ratio.
# System: ATP;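 also: ATP exposure 15 min at 22 °C before imaging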
# test description: switch fluorescence ratio, 500 uM ATP over buffer (Cy3 cluster intensity, sum of 5 cycles each) (fold (ratio)); higher = stronger signal-on switching upon ATP binding; sequences stand for … in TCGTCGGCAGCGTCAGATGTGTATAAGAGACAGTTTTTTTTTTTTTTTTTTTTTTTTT…TC
# condition info: aptamer strand: ATP DNA aptamer (quencher-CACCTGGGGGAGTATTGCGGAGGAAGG + anchor), 100 nM annealed; ATP concentration: 500 uM
Just the number, please, no unit attached.

>  <chain sequence>
TTTTTACCCG

>  <switch fluorescence ratio>
1.01

$$$$
>  <chain sequence>
TAGGAATGGG

>  <switch fluorescence ratio>
0.989

$$$$
>  <chain sequence>
ATCGCAGATT

>  <switch fluorescence ratio>
1.03

$$$$
>  <chain sequence>
GCAGATAGGG

>  <switch fluorescence ratio>
0.998

$$$$
>  <chain sequence>
TCCATTGTCC

>  <switch fluorescence ratio>
1.08

$$$$
>  <chain sequence>
TTTAACCGTA

>  <switch fluorescence ratio>
1.02

$$$$

Item: `ATGTCTTGGC` | switch fluorescence ratio: 0.998

Just so you know, measured switch fluorescence ratio for `CTTGTGGCTT` came out at 1.03

// switch fluorescence ratio value for `ATTACGCTGG` : 1.01

Reported switch fluorescence ratio of `GGTAGGCAGG` : 1

Documented switch fluorescence ratio of `TGCAGGGACT` : 1.01

Notebook: `GGGAAGGTAC` , switch fluorescence ratio read as 1.05

// field: switch fluorescence ratio; key: `AGTAAGGTTT` ; value = 0.985

Reported switch fluorescence ratio for `AGATCGAAGG` was 1.03

Lab note: `GGTTTATGGT` gave switch fluorescence ratio of 0.967

###

Items are presented alongside their recorded switch fluorescence ratio.
# Tested on: ATP;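 also: ATP exposure 15 min at 22 °C before imaging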
# test description: switch fluorescence ratio, 500 uM ATP over buffer (Cy3 cluster intensity, sum of 5 cycles each) (fold (ratio)); higher = stronger signal-on switching upon ATP binding; sequences stand for … in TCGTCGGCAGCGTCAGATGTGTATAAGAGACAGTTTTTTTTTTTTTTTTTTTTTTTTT…TC
# condition info: aptamer strand: ATP DNA aptamer (quencher-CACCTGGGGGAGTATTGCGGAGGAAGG + anchor), 100 nM annealed; ATP concentration: 500 uM
// keep it numeric: no unit symbol after the value

>  <chain sequence>
CAATAGGCGC

>  <switch fluorescence ratio>
1.01

$$$$
>  <chain sequence>
AGTGCAACTG

>  <switch fluorescence ratio>
1.01

$$$$
>  <chain sequence>
AAGCTAGTTT

>  <switch fluorescence ratio>
1

$$$$

Please fill in: switch fluorescence ratio reported for `GGGATCCATG` = 1.01

switch fluorescence ratio measured on `ATCAGAAGGT` = 0.995

The sequence listed as `AGTGGTATAG` shows switch fluorescence ratio equal to 1.01

Briefly, switch fluorescence ratio measured for `GCTCCAGTTA` : 1.18

The sequence listed as `GGTCGGGTGC` shows switch fluorescence ratio equal to 0.971

Lab note: `GTTATATAAG` gave switch fluorescence ratio of 0.984

Entry `TTTGTAACAC` — recorded switch fluorescence ratio = 1.25
